B1: library; numbered along this chain (parent)
chain: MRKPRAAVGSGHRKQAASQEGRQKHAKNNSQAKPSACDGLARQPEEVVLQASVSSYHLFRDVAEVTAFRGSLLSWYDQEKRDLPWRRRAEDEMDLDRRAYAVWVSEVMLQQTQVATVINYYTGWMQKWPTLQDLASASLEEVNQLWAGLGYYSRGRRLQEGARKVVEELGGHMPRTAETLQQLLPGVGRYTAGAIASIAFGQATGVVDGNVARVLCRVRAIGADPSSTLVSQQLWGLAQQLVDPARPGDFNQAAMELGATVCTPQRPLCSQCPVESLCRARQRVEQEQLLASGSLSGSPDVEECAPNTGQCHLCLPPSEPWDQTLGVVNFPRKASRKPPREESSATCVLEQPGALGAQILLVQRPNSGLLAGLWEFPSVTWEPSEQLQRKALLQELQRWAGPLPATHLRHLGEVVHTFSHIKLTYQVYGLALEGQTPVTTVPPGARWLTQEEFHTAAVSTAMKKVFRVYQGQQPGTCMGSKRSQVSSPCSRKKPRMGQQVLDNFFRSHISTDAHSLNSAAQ

Variants of: B1
assay notes: 8OG:A repair function score (normalized; synonymous = 0, nonsense = -1) (normalized log-likelihood score); higher = more repair activity (WT-like);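 further: cells sorted at 72 h after reporter transfection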
setup conditions: with 8OG:A DNA repair reporter (GFP) in HEK-293 MUTYH KO cells
Exercise: for every item that follows, state its recorded 8OG:A repair function score.
One number for each entry.

D243Y ... -0.667

Quick request: 8OG:A repair function score for each listed item, please.
1. P273V
2. S507Y
3. V261A

[-0.419, -0.141, -0.399]
